- MEASUREMENT_TARGET: SGLT2 (Homo sapiens, UniProt P31639)
- Construct: Human full-length SGLT2 cDNA (NM_003041.3) was synthesized; expressed in transfected cells; host or cells: HEK293, retroviral transduction with pMSCVpuro-SGLT2, puromycin selected
- Sequence (P31639 1-672): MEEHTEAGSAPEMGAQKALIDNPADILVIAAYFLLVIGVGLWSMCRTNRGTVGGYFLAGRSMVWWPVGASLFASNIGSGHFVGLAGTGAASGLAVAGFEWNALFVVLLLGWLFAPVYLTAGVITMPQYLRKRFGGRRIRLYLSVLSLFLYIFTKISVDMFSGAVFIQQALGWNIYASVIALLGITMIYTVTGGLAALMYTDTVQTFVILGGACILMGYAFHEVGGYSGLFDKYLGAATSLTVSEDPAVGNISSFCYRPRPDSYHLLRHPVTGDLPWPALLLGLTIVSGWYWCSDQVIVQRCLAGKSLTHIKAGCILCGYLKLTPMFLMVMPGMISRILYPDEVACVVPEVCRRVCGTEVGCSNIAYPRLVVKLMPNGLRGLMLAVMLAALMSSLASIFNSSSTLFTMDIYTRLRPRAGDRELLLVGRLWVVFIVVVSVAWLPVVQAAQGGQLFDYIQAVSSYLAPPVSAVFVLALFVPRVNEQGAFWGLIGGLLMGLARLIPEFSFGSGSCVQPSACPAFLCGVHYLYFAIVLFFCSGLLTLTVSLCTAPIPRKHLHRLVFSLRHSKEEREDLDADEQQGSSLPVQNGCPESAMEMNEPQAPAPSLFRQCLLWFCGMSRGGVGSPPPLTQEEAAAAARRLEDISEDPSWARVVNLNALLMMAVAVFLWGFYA
- ASSAY_METHOD_TEXT: 1-NBDG uptake in HEK293 cells stably expressing SGLT2
- Type: cell-based
- CONDITION_LABEL: HEK293, compound at 10 μM; triplicate; read-out: SGLT2 inhibitory rates
Parameter: inhibition at 10 µM. Scope: all listed entries.
Just the number in %, nothing appended.

Below, 3 compounds whose answers are already recorded.
COMPOUND	MEASUREMENT_TARGET	MEAS_VALUE
OCC1OC(c2c(O)cc(O)c(CCc3c[nH]c4ccccc34)c2O)C(O)C(O)C1O (stereo not shown) [Compound 43a]	SGLT2 (Homo sapiens, UniProt P31639)	20.4
Oc1cc(O)c(CCc2ccccc2)c(O)c1	SGLT2 (Homo sapiens, UniProt P31639)	0.2
COc1ccc(Cc2c(O)cc(O)c([C@@H]3O[C@H](CO)[C@@H](O)[C@H](O)[C@H]3O)c2O)cc1OC [Compound 20a]	SGLT2 (Homo sapiens, UniProt P31639)	13.6

The compound listed as CCOc1ccc(Cc2cc([C@@H]3O[C@H](CO)[C@@H](O)[C@H](O)[C@H]3O)ccc2Cl)cc1 [Dapagliflozin, reference compound] has a reported inhibition at 10 µM of 100
